- System: 621-102 (TSC2-deficient)
- methodSummary: relative viability vs DMSO (fraction); higher = less cytotoxic
- experimentalParameters: 8 nM; serum: 0.1% FBS; 72 h
Please note: relative viability exactly at 0.8 is F. Only values below 0.8 get T.

INSERT INTO assay_data (molecule, discretelabel) VALUES
  ('CC(C)C[C@H](NC(=O)CNC(=O)c1cc(Cl)ccc1Cl)B(O)O [MLN2238]', 'F');

Challenge: Determine whether this molecule shows relative viability lower than 0.8 (ties excluded): Nc1nc2[nH]cc(CCc3ccc(C(=O)N[C@@H](CCC(=O)O)C(=O)O)cc3)c2c(=O)[nH]1 [Pemetrexed disodium]
Response given: F

Challenge: Consider next the molecule CNC(=O)c1cc(Oc2ccc(NC(=O)Nc3cc(C(C)(C)C)nn3-c3ccc4ncccc4c3)c(F)c2)ccn1 [DCC-2036] in the same way.
Response given: F

Challenge: Consider next the molecule O=C(Nc1c[nH]nc1-c1nc2ccc(CN3CCOCC3)cc2[nH]1)NC1CC1 [AT9283] in the same way.
Response given: T

Challenge: Consider next the molecule Cn1c(Nc2ccc(C(F)(F)F)cc2)nc2cc(Oc3ccnc(-c4ncc(C(F)(F)F)[nH]4)c3)ccc21 [RAF265] in the same way.
Response given: F

Challenge: Consider next the molecule O=c1cc(N2CCOCC2)oc2c(-c3cccc4c3sc3ccccc34)cccc12 [NU7441] in the same way.
Response given: T

* * *

- Tested on: 621-102 (TSC2-deficient)
- methodSummary: relative viability vs DMSO; higher = less cytotoxic
- experimentalParameters: 10 µM; serum: 10% FBS; 72 h
Assign relative viability to each entry below.
Numbers only, in %.

INSERT INTO results (itemsmiles, u, endpointresult) VALUES
  ('CC1(C)CCC(c2ccc(Cl)cc2)=C(CN2CCN(c3ccc(C(=O)NS(=O)(=O)c4ccc(N[C@H](CCN5CCOCC5)CSc5ccccc5)c(S(=O)(=O)C(F)(F)F)c4)cc3)CC2)C1', '%', 68.4);

// for each molecule in input: emit relative viability
1. COc1cc2c(cc1O)CC[C@@H]1[C@@H]2CC[C@]2(C)[C@@H](O)CC[C@@H]12
2. CO[C@H]1/C=C\C=C(/C)C(=O)NC2=CC(=O)C(NCCN(C)C)=C(C[C@@H](C)C[C@H](OC)[C@H](O)[C@@H](C)/C=C(\C)[C@@H]1OC(N)=O)C2=O

Response given:
[39.8, 16.3]

* * *

Assign relative viability to each entry below.
- Tested on: 621-102 (TSC2-deficient)
- methodSummary: relative viability vs DMSO; higher = less cytotoxic
- experimentalParameters: 0.0001 µM; serum: 10% FBS; 72 h
One number for each entry, in %.

Past entries and their recorded results:
INSERT INTO measurements (compound, u, endpointresult) VALUES
  ('O=C(c1ccc(F)cc1)N1CCC[C@H](c2nc(-c3ccc(F)cc3)no2)C1', '%', 90.9),
  ('CCN1CCN(C(=O)Cc2ccc(Nc3ncc(F)c(Nc4ccc(C(=O)Nc5ccccc5Cl)cc4)n3)cc2)CC1 [Aurora A Inhibitor I]', '%', 106),
  ('CC(C)(C)c1cnc(CSc2cnc(NC(=O)C3CCNCC3)s2)o1', '%', 102),
  ('COc1ccc(S(=O)(=O)Nc2cccnc2Nc2ccc(O)cc2)cc1 [ABT-751]', '%', 112);

Below: the item to evaluate.
Challenge: Would you kindly share the measured relative viability for Nc1nc(=O)n([C@@H]2CS[C@H](CO)O2)cc1F [Emtricitabine] ?
Response given: 92.1

* * *

- System: 621-103 (TSC2-rescued)
- methodSummary: relative viability vs DMSO; higher = less cytotoxic
- experimentalParameters: 0.1 µM; serum: 10% FBS; 72 h
Assign relative viability to each entry below.
One number for each entry, in %.

Past entries and their recorded results:
INSERT INTO measurements (molecule, targetentity, attributemeasured, u, endpointresult) VALUES
  ('COC(=O)C1=C(C)NC(C)=C(C(=O)OCC(C)C)C1c1ccccc1[N+](=O)[O-] (configuration not stated) [Nisoldipine]', '621-103 (TSC2-rescued)', 'relative viability', '%', 111),
  ('C[C@]12CC[C@H](O)CC1=CC[C@@H]1[C@@H]2CC[C@]2(C)C(=O)CC[C@@H]12 [DHEA]', '621-103 (TSC2-rescued)', 'relative viability', '%', 86.4),
  ('N#C/C(=C\c1ccc(O)c(O)c1)C(=O)NCc1ccccc1 [AG-490]', '621-103 (TSC2-rescued)', 'relative viability', '%', 114),
  ('CC(=O)c1c(C)c2cnc(Nc3ccc(N4CCNCC4)cn3)nc2n(C2CCCC2)c1=O', '621-103 (TSC2-rescued)', 'relative viability', '%', 104);

// for each molecule in input: emit relative viability
1. CC(/C=C/C(=O)NO)=C\[C@@H](C)C(=O)c1ccc(N(C)C)cc1 [Trichostatin A]
2. Cc1nnc(C(C)C)n1[C@H]1C[C@H]2CC[C@@H](C1)N2CC[C@H](NC(=O)C1CCC(F)(F)CC1)c1ccccc1 [Maraviroc (Selzentry)]
3. CC(=O)NC[C@H]1CN(c2ccc(N3CCOCC3)c(F)c2)C(=O)O1 [Linezolid]
4. O=c1c(O)c(-c2ccc(O)c(O)c2)oc2cc(O)cc(O)c12 [Quercetin (Sophoretin)]
5. FC(F)(F)c1ccc(/C=C/c2nc(COc3ccc(CCCCn4ccnn4)cc3)co2)cc1 [Mubritinib (TAK 165)]
6. CC1=C2C[C@H]3[C@@H](CC=C4C[C@@H](O)CC[C@@]43C)[C@@H]2CC[C@]12O[C@@H]1C[C@H](C)CN[C@H]1[C@H]2C [Cyclopamine]
7. Cc1cc(NS(=O)(=O)c2ccc(N)cc2)no1 [Sulfamethoxazole]
8. Cc1cc2c(s1)Nc1ccccc1N=C2N1CCN(C)CC1 [Olanzapine (Zyprexa)]

Response given:
1. 99.7
2. 103
3. 101
4. 95.2
5. 112
6. 100
7. 101
8. 105

// for each molecule in input: emit relative viability
1. O=C(O)Cc1cccc(OCCCN(Cc2cccc(C(F)(F)F)c2Cl)CC(c2ccccc2)c2ccccc2)c1 [GW3965]
2. O=C(c1ccccc1)c1ccc2n1CCC2C(=O)O (configuration not stated) [Ketorolac]
3. Nc1[nH]cnc2ncnc1-2 [Adenine]
4. O=C1[C@H](Cc2ccc(O)cc2)N2C(=O)CCN(C(=O)NCc3ccccc3)[C@H]2CN1Cc1cccc2ccccc12 [ICG-001]
5. O=C1NC(=O)C(c2ccccc2)(c2ccccc2)N1 [Phenytoin]

Response given:
[106, 112, 97.3, 103, 106]

* * *

Assign relative viability to each entry below.
- System: 621-102 (TSC2-deficient)
- methodSummary: relative viability vs DMSO; higher = less cytotoxic
- experimentalParameters: 1 µM; serum: 10% FBS; 72 h
Where a name gives a salt, the structure may show the parent alone.
// return the numeric value with its unit appended

INSERT INTO results (molecule, endpointresult) VALUES
  ('CC(=O)c1c(C)c2cnc(Nc3ccc(N4CCNCC4)cn3)nc2n(C2CCCC2)c1=O', '115%'),
  ('CCOC(=O)[C@H](CCc1ccccc1)N[C@@H](C)C(=O)N1CCC[C@H]1C(=O)O [Enalapril Maleate]', '105%'),
  ('O=C(c1ccc(/C=C/c2n[nH]c3ccccc23)cc1)N1CCNCC1 [KW 2449]', '95%');

// for each molecule in input: emit relative viability
1. CNC(=C[N+](=O)[O-])NCCSCc1ccc(CN(C)C)o1 [Ranitidine HCl]
2. COc1cc2c(Oc3ccc(NC(=O)C4(C(=O)Nc5ccc(F)cc5)CC4)cc3F)ccnc2cc1OCCCN1CCOCC1
3. O=c1oc2cc(O)ccc2s1 [Tioxolone]
4. CCOC(=O)[C@H](CCc1ccccc1)N[C@@H](C)C(=O)N1[C@H](C(=O)O)C[C@@H]2CCC[C@@H]21 [Ramipril]
5. CNCCCC12CCC(c3ccccc31)c1ccccc12 [Maprotiline HCl]
6. CN(C)CCCN1c2ccccc2CCc2ccc(Cl)cc21 [Clomipramine HCl]

Response given:
1. 105%
2. 84.6%
3. 104%
4. 108%
5. 107%
6. 110%

// for each molecule in input: emit relative viability
1. CNCc1ccc(-c2[nH]c3cc(F)cc4c3c2CCNC4=O)cc1
2. C[C@]1(c2nc3c(C(N)=O)cccc3[nH]2)CCCN1 [ABT-888]
3. CC(O)(CS(=O)(=O)c1ccc(F)cc1)C(=O)Nc1ccc(C#N)c(C(F)(F)F)c1 (stereo not drawn) [Bicalutamide (Casodex)]
4. COC(=O)Nc1ccc(-c2nc(N3CCOCC3)c3cnn(C4CCN(Cc5cccnc5)CC4)c3n2)cc1 [WYE-687]
5. Cn1cc(-c2ccc3nnc(C(F)(F)c4ccc5ncccc5c4)n3n2)cn1
6. C#Cc1cccc(Nc2ncnc3cc(OC)c(OCCCCCCC(=O)NO)cc23)c1 [CUDC-101]
7. CCCCC(=O)N(Cc1ccc(-c2ccccc2-c2nnn[nH]2)cc1)[C@H](C(=O)O)C(C)C [Valsartan]

Response given:
["120%", "122%", "111%", "59.1%", "96.8%", "85.2%", "107%"]

// for each molecule in input: emit relative viability
1. CCC(C)(Oc1ccc(C2(c3ccc(OC(C)(CC)C(=O)O)cc3)CCCCC2)cc1)C(=O)O (stereo not drawn) [Clinofibrate]
2. CC(C)NCC(O)c1ccc(NS(C)(=O)=O)cc1 (stereo not drawn) [Sotalol HCl]

Response given:
1: 94.4%; 2: 114%

Where do the numbers come from? From the supplement of paper PMC8960247.
